Source of measurements: patent US4342690A

IC50 listing for selected compounds.
- TESTED_TARGET: angiotensin converting enzyme (Oryctolagus cuniculus, UniProt P12822)
- Sequence (P12822 34-1310): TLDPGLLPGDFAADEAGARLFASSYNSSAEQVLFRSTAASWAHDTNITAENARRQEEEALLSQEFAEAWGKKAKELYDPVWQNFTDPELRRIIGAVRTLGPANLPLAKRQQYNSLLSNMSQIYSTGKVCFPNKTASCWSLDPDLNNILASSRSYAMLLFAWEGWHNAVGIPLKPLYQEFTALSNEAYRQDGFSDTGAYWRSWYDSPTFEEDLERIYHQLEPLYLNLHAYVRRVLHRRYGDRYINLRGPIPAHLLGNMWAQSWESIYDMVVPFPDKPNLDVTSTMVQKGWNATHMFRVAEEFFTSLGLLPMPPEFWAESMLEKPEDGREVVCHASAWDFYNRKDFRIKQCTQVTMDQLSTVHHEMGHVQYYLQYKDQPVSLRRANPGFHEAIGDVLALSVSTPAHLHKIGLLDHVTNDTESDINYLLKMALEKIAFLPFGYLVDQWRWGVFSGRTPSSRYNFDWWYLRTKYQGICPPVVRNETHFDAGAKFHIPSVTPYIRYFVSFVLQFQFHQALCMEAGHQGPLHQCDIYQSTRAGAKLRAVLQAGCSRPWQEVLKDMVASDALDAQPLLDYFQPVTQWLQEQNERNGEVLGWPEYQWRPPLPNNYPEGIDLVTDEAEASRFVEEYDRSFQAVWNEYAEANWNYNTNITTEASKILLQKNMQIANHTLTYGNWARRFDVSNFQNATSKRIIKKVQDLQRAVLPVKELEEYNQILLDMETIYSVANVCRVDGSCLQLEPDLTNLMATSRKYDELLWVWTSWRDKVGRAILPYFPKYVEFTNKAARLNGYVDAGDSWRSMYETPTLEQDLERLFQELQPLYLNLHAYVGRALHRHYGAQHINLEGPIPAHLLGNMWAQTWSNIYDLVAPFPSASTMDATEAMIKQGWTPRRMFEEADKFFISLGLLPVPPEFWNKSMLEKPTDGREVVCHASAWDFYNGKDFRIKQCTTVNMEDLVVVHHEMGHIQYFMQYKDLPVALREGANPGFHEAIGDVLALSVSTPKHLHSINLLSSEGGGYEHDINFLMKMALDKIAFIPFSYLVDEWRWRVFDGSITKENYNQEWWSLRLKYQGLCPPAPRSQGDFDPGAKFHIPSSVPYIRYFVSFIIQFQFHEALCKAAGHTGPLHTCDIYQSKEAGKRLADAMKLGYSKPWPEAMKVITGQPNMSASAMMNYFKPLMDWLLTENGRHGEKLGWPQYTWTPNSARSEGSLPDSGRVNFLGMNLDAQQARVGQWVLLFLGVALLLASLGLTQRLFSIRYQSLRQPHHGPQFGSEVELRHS
VALUE_TYPE: IC50

>>> obs_value("CC(=O)SC(CC(=O)N1CCC[C@H]1C(=O)O)C(=O)c1cc2ccccc2o1 (stereo partly drawn) [Example 37]")
"74 nM"
>>> obs_value("CC(=O)SC(CC(=O)N1CCC[C@H]1C(=O)O)C(=O)c1ccc(Br)s1 (stereo partly drawn) [Example 2]")
"109 nM"
>>> obs_value("CC(=O)SC(CC(=O)N1CCC[C@H]1C(=O)O)C(=O)c1ccco1 (stereo partly drawn) [Example 36]")
"675 nM"
